Molecular target: T1, UNK ZnF1-3 (human, UniProt Q9C0B0 31-174)
T1 sequence: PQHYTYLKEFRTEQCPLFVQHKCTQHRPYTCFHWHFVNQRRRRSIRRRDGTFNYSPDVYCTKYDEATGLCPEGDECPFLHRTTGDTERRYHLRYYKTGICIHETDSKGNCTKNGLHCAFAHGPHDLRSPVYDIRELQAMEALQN
Test: nsRBNS (natural sequence RNA bind-n-seq); RBNS binding buffer (assumed for nsRBNS): 25 mM Tris pH 7.5, 150 mM KCl, 3 mM MgCl2, 0.01% Triton X-100, 500 ug/ml BSA, 20 U/ml SUPERase-In, 4 C; UNK is unkempt and MSI1 is Musashi-1; names of the RNAs are library labels; protein concentration not given here; high values mean tight binding
In all, about 24,000 sequences were measured (“enrichment r”: median about 0.99, highest 2% from about 3.7 on). Not all results are given here.
readout.name: binding signal (enrichment R)
Record the value in enrichment R, omitting the unit from your answer.

Check out these entries, answers already filled in.
chr9:74905015:74905016:+_ENSMUSG00000007656_ENSMUST00000169492|mus_hu|FALSE|FALSE (ssRNA) RNA: GGGAGUUCUACAGUCCGACGAUCUGUGUUUGAAAUAUGUGACCUUUCUUCUAACUUGUGGUCUUAAACUUCUGUUUUACAAAAUCCAAAAGGUAAAUACAGAAGAAAUCAAUACAAUAGAGAUUAUAUUAAAUAAGAGUAACACAACAGAGGAUUGAGCAUCA    2.28
chr7:151048522:151048523:+_ENSG00000013374_ENST00000566856|hu_mus|hu_hu_hu_mus_True|58_78 (ssRNA) RNA: GGGAGUUCUACAGUCCGACGAUCCUGUUUCUUAUUUAUUACGAUCUUGAUGUAAUUUUCUUGAAGUCCGAAAGUUUCAGCUAUUUUACACCUCAGGUCUCUACCAGUGACAUGCAAGCGGGUCUCCAACAAGCUUUUCUUAUCCAACAGAGGAUUGAGCAUCA    0.64

QUERY: Identify the reported binding signal for the following entry. chr2:48026839:48026840:+_ENSG00000116062_ENST00000540021|hu_hu|hu_hu_hu_mus_False|48_78 (ssRNA) RNA: GGGAGUUCUACAGUCCGACGAUCAUAGUGAGCCACUAGCGUCCUAAAUCUGGAACAAUGGCGAUCAUCCGAAAACUGGCCGAUGAAAAACUUUCCCAGUGAAGUGUCCACAAAGCAAACACCAUACACACGAGUGUGACCAGACAACAGAGGAUUGAGCAUCA
RESULT: 1.26
